# method: qHTS for inhibitors of Vif-A3G interactions: Cherry picks; also: nearly all actives have a fitted effect of over 80% in size
# measurement parameters: HeLa A3G-eYFP + Vif (tagged APOBEC3G with the HIV-1 protein that degrades it), 24 h; eYFP fluorescence increase; series mostly up to 36.9 µM
Hit rate of the full screen: of about 2,100 compounds, about 650 (31%) were called active. About 16% were inconclusive and are not listed. Calls follow the shape of the dose curve; as a rule, active = well fitted inhibition curve with a large enough effect; inconclusive = small, poorly fitted or top-dose-only effect; inactive = flat fitted curve, though single readings scatter. The list shows a part of the results.
Respond with a class label; see active, inactive

- molecule: "COC(=O)C1=C(C)NC2=C(C(=O)CC(c3cccs3)C2)C1c1ccsc1 (configuration not stated)"
  class name: "inactive"
- molecule: "CC1(C(=O)NCc2ccco2)Cc2c(-c3cccc(C(N)=O)c3)ccnc2O1 (configuration not stated)"
  class name: "inactive"
- molecule: "CCOC(=O)C(C)Oc1cccc2c(=O)n(CC(=O)NCc3ccco3)ccc12 (configuration not stated)"
  class name: "inactive"
- molecule: "COc1ccc(-c2cc(C(=O)N/N=C/c3sccc3C)c3ccccc3n2)c(OC)c1"
  class name: "inactive"

Name the outcome recorded for O=C(NCc1ccccc1)C1Cc2c(-c3cccc(F)c3)ccnc2O1 (configuration not stated) in the assay.
inactive

Now the molecule COc1ccccc1/C=C/C=N/NC(=O)c1cc(-c2ccc(C)o2)[nH]n1
inactive
